- ASSAYED SYSTEM: T1, PACAP38 (human, not fully specified)
- T1 construct: The background says natural PACAP is alpha-amidated
- T1 peptide: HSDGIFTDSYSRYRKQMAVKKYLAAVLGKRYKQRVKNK
- METHOD NOTES: SPR (Biacore), 37 C, antibody captured via anti-human Fc, peptide analyte
METRIC NAME: kon (M⁻¹ s⁻¹)

BINDER | VALUE MEASURED
519C (antibody, V domains shown, LC S(27E), G29, L50, V51, K53T, L54R, D55E, H93W, P95D) VH: EVQLVQSGAEVKKPGSSVKVSCKASGGTFSDLYMHWVRQAPGQGLEWMGLIYPIFADTRYAQKFQGRVTITADESTSTAYMELSSLRSEDTAVYYCAIDQDGSFAYWGQGTLVTVSS VL: DIVMTQSPDSLAVSLGERATINCKSSQSLLDSDGKTYLNWLQQKPGQPPKRLIYLVSTRESGVPDRFSGSGSGTDFTLTISSLQAEDVAVYYCWQGTWFDLTFGGGTKVEIK | 2.22e+07
627C (antibody, V domains shown) VH: EVQLVQSGAEVKKPGSSVKVSCKASGGTFSDVYMHWVRQAPGQGLEWMGLIYPIFADTRYAQKFQGRVTITADESTSTAYMELSSLRSEDTAVYYCAIDQDGSFAYWGQGTLVTVSS VL: DIVMTQSPDSLAVSLGERATINCKSSQSLLDSDGKTYLNWLQQKPGQPPKRLIYWASTRESGVPDRFSGSGSGTDFTLTISSLQAEDVAVYYCWQGTWFDLTFGGGTKVEIKR | 2.1e+07
917B (antibody, V domains shown, Humanized anti-PACAP variant) VH: EVQLVQSGAEVKKPGSSVKVSCKASGGTFSDSYMHWVRQAPGQGLEWMGLIYPIFADTRYAQKFQGRVTITADESTSTAYMELSSLRSEDTAVYYCAIDQDGSFAYWGQGTLVTVSS VL: DIVMTQSPDSLAVSLGERATINCKSSQSLLDSDGKTYLNWLQQKPGQPPKRLIYLVSTRESGVPDRFSGSGSGTDFTLTISSLQAEDVAVYYCWQGTWFDLTFGGGTKVEIK | 1.26e+07
609C (antibody, V domains shown) VH: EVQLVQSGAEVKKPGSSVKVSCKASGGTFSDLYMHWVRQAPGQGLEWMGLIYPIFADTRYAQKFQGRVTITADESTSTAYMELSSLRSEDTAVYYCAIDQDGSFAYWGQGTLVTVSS VL: DIVMTQSPDSLAVSLGERATINCKSSQSLLDADGKTYLNWLQQKPGQPPKRLIYWASTRESGVPDRFSGSGSGTDFTLTISSLQAEDVAVYYCWQGTWFDLTFGGGTKVEIKR | 5.17e+07
604C (antibody, V domains shown) VH: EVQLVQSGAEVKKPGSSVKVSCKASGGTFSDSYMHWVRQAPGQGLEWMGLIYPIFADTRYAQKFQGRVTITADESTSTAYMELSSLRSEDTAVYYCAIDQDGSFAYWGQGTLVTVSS VL: DIVMTQSPDSLAVSLGERATINCKSSQSLLDSDGKTYLNWLQQKPGQPPKRLIYWASTRESGVPDRFSGSGSGTDFTLTISSLQAEDVAVYYCWQGTWFDLTFGGGTKVEIK | 1.62e+07
